Cited source for all entries: the RepoRT retention time repository (doi:10.1016/j.jhazmat.2019.121712)

Assay: Thermo Scientific Acclaim RSLC 120 C18, 100 × 2.1 mm, 2.2 µm, 30 °C; A: 90% water + 10% methanol + 0.01% formic acid + 5 mM ammonium formate; B: methanol + 0.01% formic acid + 5 mM ammonium formate; gradient (min/%B) 0.1/1 3/39 14/99.9 16/99.9
Settings: stereoisomer not certain
property: LC retention time (min)
Please respond with the number in min and leave the unit unwritten.

// worked examples, LC retention time included
[[record]]
molecule = "CCCOc1ccc(S(=O)(=O)NCCC2CCCN2C)cc1-c1nc2c(CCC)nn(C)c2c(=O)[nH]1 (stereo unspecified)"
unit_name = "min"
value_observed = 7.83

[[record]]
molecule = "N#Cc1ccc(C(c2ccc(C#N)cc2)n2cncn2)cc1"
unit_name = "min"
value_observed = 6.33


Incoming: Given the entry COC(C)C(O)(C(=O)OCC1=CCN2CCC(O)C12)C(C)C (stereo unspecified) , report its measured LC retention time.
Outgoing: 4.27

Incoming: Next molecule: CCCOP(=O)(OCCC)Oc1ccc(SC)cc1
Outgoing: 10.8

Incoming: Next entry: c1ccc2c(c1)Sc1ccccc1N2CC1CN2CCC1CC2 (stereo unspecified)
Outgoing: 8.29

Incoming: Query CNC(=O)Oc1ccccc1C(C)C next
Outgoing: 8.12

Incoming: Moving on to CC12C=CC(=O)C=C1CCC1C2C(O)CC2(C)C1CCC2(O)C(=O)CO (stereo unspecified)
Outgoing: 7.84
